Molecular target: PI3K delta (Homo sapiens, UniProt O00329)
Sequence (O00329 whole entry): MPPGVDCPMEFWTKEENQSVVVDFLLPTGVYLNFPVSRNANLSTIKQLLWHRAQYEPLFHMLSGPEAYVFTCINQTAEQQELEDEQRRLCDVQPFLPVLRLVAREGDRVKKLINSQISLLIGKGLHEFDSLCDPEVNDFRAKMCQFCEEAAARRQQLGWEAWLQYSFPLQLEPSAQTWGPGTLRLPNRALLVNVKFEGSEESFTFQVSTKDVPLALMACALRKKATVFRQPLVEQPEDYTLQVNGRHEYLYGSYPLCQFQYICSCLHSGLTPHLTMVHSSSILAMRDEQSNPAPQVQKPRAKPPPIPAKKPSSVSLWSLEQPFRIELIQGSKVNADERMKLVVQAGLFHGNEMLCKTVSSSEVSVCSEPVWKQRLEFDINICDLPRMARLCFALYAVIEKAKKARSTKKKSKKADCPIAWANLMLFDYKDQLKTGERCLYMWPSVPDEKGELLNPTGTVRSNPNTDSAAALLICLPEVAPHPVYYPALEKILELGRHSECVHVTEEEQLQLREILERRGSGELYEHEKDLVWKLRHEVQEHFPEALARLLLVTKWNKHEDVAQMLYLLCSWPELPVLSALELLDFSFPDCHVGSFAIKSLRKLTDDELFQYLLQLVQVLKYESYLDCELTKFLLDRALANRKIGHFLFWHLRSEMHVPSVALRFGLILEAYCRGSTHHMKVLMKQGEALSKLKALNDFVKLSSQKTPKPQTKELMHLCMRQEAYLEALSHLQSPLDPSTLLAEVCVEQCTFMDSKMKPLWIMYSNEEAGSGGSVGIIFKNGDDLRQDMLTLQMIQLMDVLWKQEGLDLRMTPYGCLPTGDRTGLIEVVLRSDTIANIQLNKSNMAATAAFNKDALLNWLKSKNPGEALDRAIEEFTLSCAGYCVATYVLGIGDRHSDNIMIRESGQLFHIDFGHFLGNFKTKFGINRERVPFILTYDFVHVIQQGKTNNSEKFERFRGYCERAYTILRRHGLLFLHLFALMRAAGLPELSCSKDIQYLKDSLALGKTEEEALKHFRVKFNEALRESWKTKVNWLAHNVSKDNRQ
Sequence (P27986 whole entry partner): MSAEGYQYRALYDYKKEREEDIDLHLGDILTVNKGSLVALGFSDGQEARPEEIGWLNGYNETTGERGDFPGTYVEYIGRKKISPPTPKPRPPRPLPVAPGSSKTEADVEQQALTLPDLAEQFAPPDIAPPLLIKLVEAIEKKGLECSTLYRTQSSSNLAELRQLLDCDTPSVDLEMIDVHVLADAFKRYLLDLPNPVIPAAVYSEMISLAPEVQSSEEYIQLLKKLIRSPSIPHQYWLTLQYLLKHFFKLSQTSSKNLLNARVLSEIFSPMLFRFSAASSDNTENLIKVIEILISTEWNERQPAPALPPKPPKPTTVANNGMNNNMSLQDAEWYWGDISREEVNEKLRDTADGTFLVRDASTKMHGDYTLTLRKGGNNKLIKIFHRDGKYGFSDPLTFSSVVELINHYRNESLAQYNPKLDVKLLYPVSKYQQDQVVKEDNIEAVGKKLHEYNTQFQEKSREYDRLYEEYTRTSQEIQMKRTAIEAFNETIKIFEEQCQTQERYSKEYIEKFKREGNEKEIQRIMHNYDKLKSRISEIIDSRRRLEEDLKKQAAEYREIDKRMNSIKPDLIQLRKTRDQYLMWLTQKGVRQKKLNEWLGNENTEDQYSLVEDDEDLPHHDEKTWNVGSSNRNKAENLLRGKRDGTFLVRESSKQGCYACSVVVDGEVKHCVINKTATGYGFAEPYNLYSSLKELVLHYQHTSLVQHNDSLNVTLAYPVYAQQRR
Assay: Luciferase-coupled chemiluminescence kinase assay (ATP consumption, KinaseGlo)
Record form. Attribute: IC50. Fill in for each entry.

Sample records with IC50:
Molecular string	IC50
CC(C)Cn1cc(-c2nc3c(N4CCC(n5c(=O)[nH]c6ccccc65)CC4)ncnc3n2C)cn1	< 0.05 µM
Cn1cc(-c2nc3c(N4CCN(S(=O)(=O)c5ccc(Cl)cc5)CC4)ncnc3n2C)cn1	0.5 to 1.5 µM
Cn1c(C(=O)NCc2ccncc2)nc2c(N3CCC4(CC3)C(=O)Nc3ccccc34)ncnc21	0.05 to 0.25 µM

Next up:
Cc1nc(-c2ccccc2)n(OCC2CCN(c3ncnc4c3nc(-c3cnn(C)c3)n4C)CC2)c1C yielded IC50 of 0.5 to 1.5 µM

----------
Molecular target: PI3K delta (Homo sapiens)
Assay: Luciferase-coupled chemiluminescence kinase assay (ATP consumption, KinaseGlo)
Record form. Attribute: IC50. Fill in for each entry.

Sample records with IC50:
Compound	Result
CCn1c(C(=O)NCC2(O)CC2)nc2c(N3CCC4(CC3)C(=O)Nc3ccccc34)ncnc21 [Compound 215]	< 50 nM
Cn1c(C(=O)N2CC(O)C2)nc2c(N3CCC4(CC3)C(=O)Nc3ccccc34)ncnc21 [Compound 41]	50 to 250 nM
Cn1c(C(=O)N2CCC(F)(F)C2)nc2c(N3CCC(n4c(=O)[nH]c5ccccc54)CC3)ncnc21 [Compound 108]	50 to 250 nM

Next up:
Cc1[nH]ncc1-c1nc2c(N3CCC(n4c(=O)[nH]c5ncccc54)CC3)ncnc2n1C [Compound 394] yielded IC50 of < 50 nM

----------
Record form. Attribute: IC50. Fill in for each entry.
Target: PI3K delta (Homo sapiens)
Experiment: Luciferase-coupled chemiluminescence kinase assay (ATP consumption, KinaseGlo)

Compound	Result
CC(NC(=O)c1nc2c(N3CCC4(CC3)C(=O)Nc3ccccc34)ncnc2n1C)C1CC1 (centres unmarked)	50 to 250 nM
CCn1c(C(=O)NC(C)C)nc2c(N3CCC4(CC3)C(=O)Nc3ccccc34)ncnc21	< 50 nM

I need IC50 for every entry listed below, if you could help.
1. Cn1c(-c2ccc(N)nc2)nc2c(N3CCC(n4c(=O)[nH]c5ccccc54)CC3)ncnc21
2. Cn1c(-c2cccnc2)nc2c(N3CCC(n4c(=O)[nH]c5ccccc54)CC3)ncnc21

Data returned:
1: < 50 nM; 2: < 50 nM

----------
Biological target: PI3K delta (Homo sapiens)
Test: Luciferase-coupled chemiluminescence kinase assay (ATP consumption, KinaseGlo)
Format: biochemical
pIC50: −log10 of the molar value.
Measurement type: pIC50

Sample records with pIC50:
Molecule	Assayed target	pIC50
CN(CCC#N)C(=O)c1nc2c(N3CCC4(CC3)C(=O)Nc3ccccc34)ncnc2n1C [Compound 39]	PI3K delta (Homo sapiens)	5.82 to 6.30
CC(=O)c1nc2c(N3CCC(n4c(=O)[nH]c5ccccc54)CC3)ncnc2n1C [Compound 95]	PI3K delta (Homo sapiens)	6.30 to 6.60
CC(CNC(=O)c1nc2c(N3CCC4(CC3)C(=O)Nc3ccccc34)ncnc2n1C)c1ccccc1 (stereo not drawn) [Compound 31]	PI3K delta (Homo sapiens)	5.82 to 6.30
Cn1c(C(=O)N[C@H]2CC[C@H](O)CC2)nc2c(N3CCC4(CC3)C(=O)Nc3ccccc34)ncnc21 [Compound 87]	PI3K delta (Homo sapiens)	> 7.30
Cn1cc(-c2nc3c(N4CCC5(CC4)C(=O)Nc4ccccc45)ncnc3n2C)cn1 [Compound 239]	PI3K delta (Homo sapiens)	> 7.30

I need pIC50 for every entry listed below, if you could help.
1. CCCCNC(=O)c1nc2c(N3CCC(n4c(=O)[nH]c5ccccc54)CC3)ncnc2n1C [Compound 45]
2. Cn1c(C(=O)NCC2CC2)nc2c(N3CCC4(CC3)CC(=O)c3ccccc34)ncnc21 [Compound 119]
3. Cn1c(C(=O)NCC2CC2)nc2c(N3CCC(n4c(=O)[nH]c5ncccc54)CC3)ncnc21 [Compound 240]
4. CCn1c(-c2nnc(C(C)C)o2)nc2c(N3CCC4(CC3)C(=O)Nc3ccccc34)ncnc21 [Compound 209]

Data returned:
> 7.30
6.30 to 6.60
6.60 to 7.30
> 7.30

----------
Record form. Attribute: IC50. Fill in for each entry.
Biological target: PI3K delta (Homo sapiens, UniProt O00329)
Assay: Luciferase-coupled chemiluminescence kinase assay (ATP consumption, KinaseGlo)

Sample records with IC50:
Compound	Result
Cc1ccccc1CNC(=O)c1nc2c(N3CCC(n4c(=O)[nH]c5ccccc54)CC3)ncnc2n1C	250 to 500 nM
Cc1ncc(-c2nc3c(N4CCC(n5c(=O)[nH]c6ncccc65)CC4)ncnc3n2C)n1C	< 50 nM
CCn1c(C(=O)N2CC(F)(F)C2)nc2c(N3CCC4(CC3)C(=O)Nc3ccccc34)ncnc21	< 50 nM
CCn1c(C(=O)NCC2(O)CC2)nc2c(N3CCC(n4c(=O)[nH]c5ccccc54)CC3)ncnc21	< 50 nM
CCn1c(C(=O)N2CC[C@@H](F)C2)nc2c(N3CCC(n4c(=O)[nH]c5ccccc54)CC3)ncnc21	< 50 nM

I need IC50 for every entry listed below, if you could help.
1. Cn1c(-c2nnc(C3CC3)o2)nc2c(N3CCC(n4c(=O)[nH]c5ccccc54)CC3)ncnc21
2. Cc1[nH]ncc1-c1nc2c(N3CCC4(CC3)C(=O)Nc3ccccc34)ncnc2n1C
3. COc1ncc(-c2nc3c(N4CCC(n5c(=O)[nH]c6ccccc65)CC4)ncnc3n2C)cn1

Data returned:
1. < 50 nM
2. < 50 nM
3. < 50 nM

----------
Molecular target: PI3K delta (Homo sapiens, UniProt O00329)
Experiment: Luciferase-coupled chemiluminescence kinase assay (ATP consumption, KinaseGlo)
Format: biochemical
Record form. Attribute: IC50. Fill in for each entry.

Sample records with IC50:
Molecule	IC50
Cn1c(C(=O)NCC2CC2)nc2c(N3CC(n4c(=O)[nH]c5ccccc54)C3)ncnc21 [Compound 137]	50 to 250 nM
CCn1c(C(=O)N[C@H]2CC[C@H](O)CC2)nc2c(N3CCC4(CC3)C(=O)Nc3ccccc34)ncnc21 [Compound 159]	< 50 nM
COc1ccc(OC)c(S(=O)(=O)N2CCN(c3ncnc4c3nc(-c3cnn(C)c3)n4C)CC2)c1 [Compound 376]	250 to 500 nM
CCNC(=O)c1nc2c(N3CCC(n4c(=O)[nH]c5ccccc54)CC3)ncnc2n1C [Compound 62]	50 to 250 nM
Cn1c(C(=O)NCc2ccc3c(c2)OCO3)nc2c(N3CCC(n4c(=O)[nH]c5ccccc54)CC3)ncnc21 [Compound 50]	250 to 500 nM

I need IC50 for every entry listed below, if you could help.
1. Cc1ncc(-c2nc3c(N4CCC(n5c(=O)[nH]c6ccccc65)CC4)ncnc3n2C)n1C [Compound 333]
2. CCn1c(C(=O)NC(C)C)nc2c(N3CCC(n4c(=O)[nH]c5ccccc54)CC3)ncnc21 [Compound 196]
3. Cc1c(-c2nc3c(N4CCC(n5c(=O)[nH]c6ncccc65)CC4)ncnc3n2C)cnn1C [Compound 331]
4. Cn1cc(-c2nc3c(N4CCN(S(=O)(=O)c5cccc(Cl)c5Cl)CC4)ncnc3n2C)cn1 [Compound 389]
5. Cn1cc(-c2nc3c(N4CCN(c5cccc(OCC(=O)NC6CCCCC6)c5)CC4)ncnc3n2C)cn1 [Compound 358]
6. Cn1c(-c2ccc(C(F)(F)F)nc2)nc2c(N3CCC4(CC3)C(=O)Nc3ccccc34)ncnc21 [Compound 327]
7. Cc1c(-c2nc3c(N4CCC(n5c(=O)[nH]c6ccccc65)CC4)ncnc3n2C)cnn1C [Compound 241]

Data returned:
1. < 50 nM
2. < 50 nM
3. < 50 nM
4. 250 to 500 nM
5. 500 to 1500 nM
6. < 50 nM
7. < 50 nM

I need IC50 for every entry listed below, if you could help.
1. CCn1c(C(=O)NCCCCO)nc2c(N3CCC(n4c(=O)[nH]c5ccccc54)CC3)ncnc21 [Compound 195]
2. COc1ccc(Cl)cc1S(=O)(=O)N1CCN(c2ncnc3c2nc(-c2cnn(C)c2)n3C)CC1 [Compound 388]
3. CN(C)CCOc1cccc2c1[nH]c(=O)n2C1CCN(c2ncnc3c2nc(C(=O)NCC2CC2)n3C)CC1 [Compound 276]

Data returned:
1. < 50 nM
2. 50 to 250 nM
3. 250 to 500 nM

I need IC50 for every entry listed below, if you could help.
1. Cc1cccc(C(=O)NCc2ccccc2N2CCN(c3ncnc4c3nc(-c3cnn(C)c3)n4C)CC2)c1 [Compound 363]
2. CCCCNC(=O)c1nc2c(N3CCC(n4c(=O)[nH]c5ccccc54)CC3)ncnc2n1CC [Compound 157]

Data returned:
["250 to 500 nM", "50 to 250 nM"]

----------
Record form. Attribute: pIC50. Fill in for each entry.
Biological target: PI3K delta (Homo sapiens, UniProt O00329)
Assay: Luciferase-coupled chemiluminescence kinase assay (ATP consumption, KinaseGlo)
Type: biochemical
pIC50: −log10 of the molar value.

Sample records with pIC50:
Molecular string	pIC50
CCn1ncc(-c2nc3c(N4CCC(n5c(=O)[nH]c6c(F)cccc65)CC4)ncnc3n2C)c1C	> 7.30
Cn1c(C(=O)NCC(F)(F)F)nc2c(N3CCC4(CC3)C(=O)Nc3ccccc34)ncnc21	> 7.30
CCn1c(C(=O)N2CC[C@@H](F)C2)nc2c(N3CCC4(CC3)C(=O)Nc3ccccc34)ncnc21	> 7.30

Next up:
COC(=O)c1nc2c(N3CCC(n4c(=O)[nH]c5ccccc54)CC3)ncnc2n1C yielded pIC50 of 5.82 to 6.30
